# targetDesc: cynomolgus monkey CD3 E&D complex protein (Sino Biological Inc., CT032-00323H) (cynomolgus monkey) (UniProt Q95LI5)
# Sequence (Q95LI5 22-117, chain 1 of 2): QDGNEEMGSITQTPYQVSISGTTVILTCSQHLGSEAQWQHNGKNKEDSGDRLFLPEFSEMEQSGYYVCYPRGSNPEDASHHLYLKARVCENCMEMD
# Sequence (Q95LI8 22-105, chain 2 of 2, further chain): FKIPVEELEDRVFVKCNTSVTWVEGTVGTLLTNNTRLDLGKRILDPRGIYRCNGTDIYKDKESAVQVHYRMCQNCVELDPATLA
# testSummary: SPR, antigen on chip
endpointName: koff (s⁻¹)
State the answer as a number, implicitly in s⁻¹.

Fill in koff for record SGN70-sp34.24HL (bispecific antibody, part only; not given: anti-CD70 Fab arm and Fc, not shown: another chain or arm of the molecule; a dimerising Fc or GST; large carriers; small tags and cut ends) scFv: EVQLVESGGGLVQPGGSLKLSCAASGFTFNTYAMNWVRQASGKGLEWVGRIRSKYNNYATYYADSVKDRFTISRDDSKSTLYLQMNSLKTEDTAVYYCARHGNFGQSYVSWFAYWGQGTTVTVSSGGGGSGGGGSGGGGSGGGGSQAVVTQEPSLTVSPGGTVTLTCRSSTGAVTTSNYANWVQQKPGQAPRGLIGGTNKRAPGVPARFSGSLLGDKAALTLLGAQPEDEAEYYCALWYSNLWVFGQGTKLTVL 0.0302
